- System: PC-3 prostate
- MEASUREMENT_NOTES: NCI tumour cell line growth inhibition, 48 h
# reported TGI; entries follow

Illustrative cases are given below, each with its answer.
{"columns": ["COMPOUND", "VALUE_TYPE", "OBSERVED"],
 "data": [
  ["C=C1C(=O)O[C@H]2[C@H]1CC/C(COC(=O)NCCCCCCCCNC(=O)OC/C1=C/CC[C@@]3(C)O[C@H]3[C@H]3OC(=O)C(=C)[C@@H]3CC1)=C\\CC[C@@]1(C)O[C@@H]21", "TGI", "1.63 µM"],
  ["COc1ccc(/C=C/C(=O)c2ccc(OC(=O)/C=C/c3ccccc3)cc2)cc1", "TGI", "> 100 µM"],
  ["Nc1nc(=S)n(-c2ccc(Cl)cc2)c2nc3ccccc3cc12", "TGI", "> 100 µM"],
  ["CCCCOC(=O)c1cc(C(=CCC[C@H]2CC[C@@]3(C)[C@@H](CC[C@@H]4[C@@H]3CC[C@]3(C)[C@@H](C(C)CCCC(C)C)CC[C@@H]43)C2)c2cc(Cl)c(O)c(C(=O)OCCCC)c2)cc(Cl)c1O (stereo partly specified)", "TGI", "> 50 µM"]
]}

Query: Look at this compound and give its reported TGI. `Clc1c2ccccc2nc2c1[nH]c1ccccc12`
Result: > 100 µM

Query: Next up: `CC[C@H](C)[C@H](NC(=O)[C@@]1(O)[C@H](O)[C@]2(CC)C=CCN3CC[C@@]4(c5cc(Br)c(OC)cc5N(C)[C@@H]14)[C@@H]32)C(=O)OC`
Result: > 100 µM

----------
- Test system: NCI-H226 lung
- MEASUREMENT_NOTES: NCI tumour cell line growth inhibition, 48 h
VALUE_TYPE: TGI

Query: Look at this compound and give its reported TGI. `O=C(O[C@H]1CCN2C[C@H]3C[C@H](CN4C(=O)CCC[C@H]34)[C@@H]2C1)c1ccc(O)cc1`
Result: > 100 µM

----------
# reported TGI; entries follow
- Tested on: HOP-18 NSCLC
- MEASUREMENT_NOTES: NCI tumour cell line growth inhibition, 48 h

Query: Form field - read-out: TGI; system: HOP-18 NSCLC; submitted item: Cc1ccc(NC(=O)OCC(COc2ccc(Cl)cc2Cl)OC(=O)Nc2ccc(C)cc2)cc1 (stereo unspecified)
Result: > 100 µM

Query: Next up: CC(C)C1N2CCCCC2[C@@H]2c3[nH]c4ccccc4c3CCN12 (stereo partly specified)
Result: > 100 µM

Query: Next up: `C[CH2][Sn]([CH2]C)([O]C(=O)c1ccc(OC)c(OC)c1OC)[O]C(=O)c1ccc(OC)c(OC)c1OC`
Result: 32.7 µM

----------
- Tested on: M14 melanoma
- MEASUREMENT_NOTES: NCI tumour cell line growth inhibition, 48 h
# reported TGI; entries follow

{"columns": ["COMPOUND", "TGI"],
 "data": [
  ["CC(=O)O[C@H]1CC2C=CC3C(CCC31)O2 (stereo partly specified)", "> 100 µM"]
]}

Query: Look at this compound and give its reported TGI. `COc1ccc(/C=C/C(=O)c2ccc(OC(=O)/C=C/c3ccccc3)cc2)cc1`
Result: > 100 µM

Query: Next up: CC1C(c2ccccc2O)c2cc3c(cc2OC1N1CCOCC1)OCO3 (stereo unspecified)
Result: > 100 µM

----------
- Tested on: IGROV1 ovarian
- MEASUREMENT_NOTES: NCI tumour cell line growth inhibition, 48 h
VALUE_TYPE: TGI

Illustrative cases are given below, each with its answer.
{"columns": ["MOLECULE", "TARGET_UNDER_TEST", "TGI"],
 "data": [
  ["O=c1c([OH2+])c(-c2ccc(O)cc2[O-])oc2cc(O)cc([O-])c12.O=c1c([OH2+])c(-c2ccc(O)cc2[O-])oc2cc(O)cc([O-])c12.[Ti+4]", "IGROV1 ovarian", "> 100 µM"],
  ["S=C(N1CCN(c2ccccc2)CC1)N1CCN(c2ccccc2)CC1", "IGROV1 ovarian", "> 100 µM"],
  ["CCCNC(=O)N(C)C(=O)N1N=C(c2ccccc2)C1c1ccccc1 (centres undefined)", "IGROV1 ovarian", "> 100 µM"]
]}

Could you now consider this next molecule?
Query: Look at this molecule and give its reported TGI. COC1CC(O[C@H]2CC[C@@]3(C)[C@@H](CC[C@]4(O)[C@@H]3CC[C@]3(C)[C@@H](C(C)=O)[C@H](OC(=O)CC(C)C)[C@@H](OC(=O)c5ccccc5)[C@@]34O)C2)OC(C)C1OC1CC(OC)C(OC2OC(C)C(O)C(OC)C2O)C(C)O1 (some centres undefined)
Result: > 25 µM

----------
# reported TGI; entries follow
- Test system: MDA-MB-435
- MEASUREMENT_NOTES: NCI tumour cell line growth inhibition, 48 h

Illustrative cases are given below, each with its answer.
{"columns": ["COMPOUND", "TGI"],
 "data": [
  ["CCO/C(Cc1ccc(Cl)cc1)=N/NC(N)=S", "> 100 µM"],
  ["C#Cc1cccc(NC(=O)c2ccc(NC(=O)CCl)cc2)c1", "> 82.5 µM"],
  ["CCCNC(=O)N(C)C(=O)N1N=C(c2ccccc2)C1c1ccccc1 (configuration not stated)", "> 100 µM"]
]}

Query: Look at this compound and give its reported TGI. `COc1cccc(/C=C\c2ccc(O)cc2)c1`
Result: > 91.2 µM

Query: Next up: `O=[N+]([O-])c1cccc(N=Nc2c(O)ccc3ccccc23)c1`
Result: > 100 µM

Query: Next up: `COC(=O)/C(C#N)=C(\N)c1c(C)c2ccccc2oc1=N`
Result: > 100 µM

Query: Next up: `COCc1c(-c2ccc(NC(=O)Nc3cc(C(F)(F)F)ccc3F)c(F)c2)c2c(N)ncnn2c1CN1CCOCC1`
Result: > 10 µM

Query: Next up: `O=Nc1c(O)cc(Nc2cccnc2)c2ccccc12`
Result: > 100 µM

Query: Next up: `O=C(N/N=C/C=C/c1ccc([N+](=O)[O-])o1)c1ccc(C(=O)N/N=C/C=C/c2ccc([N+](=O)[O-])o2)cc1`
Result: > 73.8 µM

Query: Next up: `COC(=O)C1=NN2c3ccccc3CN([C@@H](C)c3ccccc3)C(=O)[C@@H]2[C@H]1c1ccccc1`
Result: > 100 µM

Query: Next up: `CCOC(=O)C(CCc1ncnc2c1ncn2Cc1ccccc1)(CCc1ncnc2c1ncn2Cc1ccccc1)C(=O)OCC`
Result: > 100 µM

Query: Next up: `CCn1ccc(NS(=O)(=O)c2ccc(N)cc2)nc1=O`
Result: > 100 µM

Query: Next up: `CC1(C)N=C(N)N=C(N)N1c1cccc(Br)c1`
Result: > 100 µM

----------
- Test system: DU-145 prostate
- MEASUREMENT_NOTES: NCI tumour cell line growth inhibition, 48 h; in the data active = GI50 below about 0.43 µM; inactive = the rest
Lab note: assign the record to one of true (1) = active, false (0) = inactive

Use these answered entries as a reference point.
{"columns": ["COMPOUND", "LABEL_CLASS"],
 "data": [
  ["COc1cc(/C=C2\\C[C@H]3[C@@H]4CC=C5C[C@@H](OC(C)=O)CC[C@]5(C)[C@H]4CC[C@]3(C)[C@H]2OC(C)=O)ccc1OCCN1CCCC1", "false (0)"],
  ["COc1ccc(OC)c(/C=C/c2nc(SCc3ccccc3)n(-c3ccc(Cl)cc3)n2)c1", "false (0)"],
  ["C=CCc1c(O)c(C(=O)/C=C/c2ccccc2)c(OC)c2ccoc12", "false (0)"],
  ["CC1(C)N=C(N)N=C(N)N1c1cccc(Br)c1", "false (0)"],
  ["CCCCCCCC(=O)[O][Hg][CH2]C1COC([CH2][Hg][O]C(=O)CCCCCCC)CO1 (configuration not stated)", "false (0)"],
  ["CSc1ccc(C(=O)/C=C/c2ccccc2Cl)cc1", "false (0)"]
]}

Query: How did this test come out for `COc1ccc(N(C)c2nc(Cl)nc3cnn(C)c23)cc1` ?
Result: true (1)

----------
- Tested on: SK-MEL-28 melanoma
- MEASUREMENT_NOTES: NCI tumour cell line growth inhibition, 48 h
VALUE_TYPE: TGI

{"columns": ["MOLECULE", "TARGET_UNDER_TEST", "TGI"],
 "data": [
  ["C1C[OH+]CC[OH+]CCNCC[OH+]CC[OH+]CCN1.Cl.[Cl-].[Pt+4]", "SK-MEL-28 melanoma", "> 100 µM"],
  ["O=[N+]([O-])c1ccc(Sc2ccncn2)c([N+](=O)[O-])c1", "SK-MEL-28 melanoma", "9.44 µM"],
  ["O=c1c2c(c1=O)-c1ccccc1CN2", "SK-MEL-28 melanoma", "> 100 µM"]
]}

Query: Look at this molecule and give its reported TGI. CC(=O)OCC1OC(n2nc(Cc3ccccc3)c(=S)[nH]c2=S)C(OC(C)=O)C(OC(C)=O)C1OC(C)=O (centres undefined)
Result: > 100 µM
